Origin of values: patent US20220401514A1

Tested on: carbapenem-resistant bacterial strains
Assay: organism not typed
Format: cell-based
Conditions: carbapenem-resistant isolate PA23
measuredEndpoint: MIC (µg/mL)
Field: numeric (µg/mL). Do not append units.

sequenceentry="MARRYRLSRRRSRRLFSRTALRMHRRNRLRRIMRGGIRF [Chp4]" obsvalue=1

Can you look up MIC on carbapenem-resistant bacterial strains for MAYRGFKTSRVVKHRVRRRWFNHRRRYR [Spi1] ?
8

----------
Test system: P. aeruginosa strain CFS-1292
Test: Checkerboard assay (FICI) with antibiotics, P. aeruginosa
Assay type: cell-based, Pseudomonas aeruginosa
Conditions: combined with Chp4-M1; P. aeruginosa CFS-1292
Parameter Antibiotic FIC: see the listing below.

Reported Antibiotic FIC, molecule C[C@H]1COc2c(N3CCN(C)CC3)c(F)cc3c(=O)c(C(=O)O)cn1c23 [Levofloxacin] : ____
0.5

Reported Antibiotic FIC, molecule CC[C@H]1OC(=O)[C@H](C)[C@@H](O[C@H]2C[C@@](C)(OC)[C@@H](O)[C@H](C)O2)[C@H](C)[C@@H](O[C@@H]2O[C@H](C)C[C@H](N(C)C)[C@H]2O)[C@](C)(O)C[C@@H](C)CN(C)[C@H](C)[C@@H](O)[C@]1(C)O [Azithromycin] : ____
0.25

Reported Antibiotic FIC, molecule C[C@@H](O)[C@H]1C(=O)N2C(C(=O)O)=C(S[C@@H]3CN[C@H](C(=O)N(C)C)C3)[C@H](C)[C@H]12 [meropenem, reference compound] : ____
0.25

Reported Antibiotic FIC, molecule NC[C@H]1O[C@H](O[C@H]2[C@H](O)[C@@H](O[C@H]3O[C@H](CO)[C@@H](O)[C@H](N)[C@H]3O)[C@H](N)C[C@@H]2N)[C@H](N)C[C@@H]1O [tobramycin, reference compound] : ____
0.25

Reported Antibiotic FIC, molecule CCN1CCN(C(=O)N[C@@H](C(=O)N[C@@H]2C(=O)N3[C@@H]2SC(C)(C)[C@@H]3C(=O)O)c2ccccc2)C(=O)C1=O [Piperacillin] : ____
0.5

Reported Antibiotic FIC, molecule C[C@H]1[C@H](NC(=O)/C(=N\OC(C)(C)C(=O)O)c2csc(N)n2)C(=O)N1S(=O)(=O)O [Aztreonam] : ____
0.25

Reported Antibiotic FIC, molecule NCC[C@H](O)C(=O)N[C@@H]1C[C@H](N)[C@@H](O[C@H]2O[C@H](CN)[C@@H](O)[C@H](O)[C@H]2O)[C@H](O)[C@H]1O[C@H]1O[C@H](CO)[C@@H](O)[C@H](N)[C@H]1O [Amikacin] : ____
0.0625

----------
Tested on: carbapenem-resistant bacterial strains
Assay: organism not typed
Assay type: cell-based
Conditions: carbapenem-resistant isolate PA23
Text: Determination of Minimal Inhibitory Concentrations (MIC).
Parameter MIC: see the listing below.
Field: numeric (µg/mL). Do not append units.

Reported MIC, sequence MLTVWSDTPTIKRRKDMYRKRMSRKKSKKVFAKTAMKVNKRNHVKPMRGGYRI [Gkh3] : ____
8

Reported MIC, sequence MARRRYRLPRRRSRRLFSRTALRMHPRNRLRRIMRGGIRF [Chp6] : ____
1

Reported MIC, sequence MRRRRLSRRTSRRFFRKGLKVRRRNLRARPMRGGFRI [Unp2] : ____
1

Reported MIC, sequence MVRRRRLRRRISRRIFRRTVARVGRRRRSFRGGIRF [Chp1] : ____
4

Reported MIC, sequence MARSRRRMSKRSSRRSFRKYAKTHKRNFKARSMRGGIRL [Ecp1] : ____
4

Reported MIC, sequence MARSRRRMSKRSSRRSFRKYAKTHKKNFKARSMRGGIRL [Ecp3] : ____
2

Reported MIC, sequence MKRRKLSKKKSRKIFTRGAVNVKKRNLRARPMRGGFRI [Chp10] : ____
4
